Values compiled from the kinase profiling compilation of Christmann-Franck et al. (2016).

Biological target: SRC (human)
Test: KINOMEscan competition binding
Conditions: compound 10.0 µM
readout: kinase still bound, per cent of control

• CCS(=O)(=O)Nc1ccc2c(c1)[C@H](/C(=N/c1ccc(CN3CCCCC3)cc1)c1ccccc1)C(=O)N2 = 0%
• CC(=O)c1c(-c2ccncc2)[nH]c(-c2ccncc2)c1C = no effect (inactive)
• N#Cc1ccc(-c2cnc3[nH]cc(NC(=O)c4cccnc4)c3c2)cc1 = no effect (inactive)
• Nc1ncnc2c1c(-c1cccc(O)c1)cn2C1CCNCC1 = 0%

QUERY: Enter reported kinase still bound, per cent of control observed with SRC (human) for "c1ccc(-c2n[nH]cc2-c2ccnc3ccccc23)nc1"
RESULT: no effect (inactive)

* * *

Biological target: UniProt:P42681
Sequence (P42681 whole entry, looked up): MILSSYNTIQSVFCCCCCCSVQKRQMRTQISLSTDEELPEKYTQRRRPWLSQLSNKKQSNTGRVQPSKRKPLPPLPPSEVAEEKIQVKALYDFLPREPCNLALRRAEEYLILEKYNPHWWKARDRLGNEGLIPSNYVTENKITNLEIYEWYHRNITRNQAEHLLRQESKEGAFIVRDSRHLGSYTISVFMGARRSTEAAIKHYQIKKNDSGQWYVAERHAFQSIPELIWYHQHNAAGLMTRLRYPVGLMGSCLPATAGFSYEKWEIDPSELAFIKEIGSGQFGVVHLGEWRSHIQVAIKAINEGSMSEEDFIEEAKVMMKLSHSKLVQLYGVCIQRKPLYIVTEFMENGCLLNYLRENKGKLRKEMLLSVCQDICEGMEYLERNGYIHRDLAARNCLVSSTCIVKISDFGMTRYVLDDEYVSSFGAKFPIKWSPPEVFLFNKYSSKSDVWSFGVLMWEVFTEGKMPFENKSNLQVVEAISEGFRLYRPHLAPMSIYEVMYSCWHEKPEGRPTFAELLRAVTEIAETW
Assay: KINOMEscan competition binding
Conditions: compound 10.0 µM
readout: kinase still bound, per cent of control

* Cc1cc(Nc2cc(N3CCN(C)CC3)nc(Sc3ccc(NC(=O)C4CC4)cc3)n2)[nH]n1 | no effect (inactive)
* CCS(=O)(=O)Nc1ccc2c(c1)[C@H](/C(=N/c1ccc(CN3CCCCC3)cc1)c1ccccc1)C(=O)N2 | 0%
* O=C(Nc1n[nH]c2nc(-c3cccc(O)c3)ccc12)C1CC1 | no effect (inactive)
* N#Cc1ccc(-c2cnc3[nH]cc(NC(=O)c4cccnc4)c3c2)cc1 | no effect (inactive)
* Cc1ccc(C(=O)Nc2cccc(C(C)(C)C)c2)cc1-c1ccc(C(=O)NCC2CC2)cc1 | no effect (inactive)
* Nc1ncnc2c1c(-c1cccc(O)c1)cn2C1CCNCC1 | no effect (inactive)
* NC(=O)Nc1sc(-c2ccc(F)cc2)cc1C(N)=O | no effect (inactive)
* Cc1ccc(O)cc1Nc1ccnc(Nc2cccc(C(N)=O)c2)n1 | 0%
* c1ccc(-c2n[nH]cc2-c2ccnc3ccccc23)nc1 | no effect (inactive)

Then this compound:
QUERY: Find the recorded kinase still bound, per cent of control belonging to "CC(=O)c1c(-c2ccncc2)[nH]c(-c2ccncc2)c1C" and report it.
RESULT: no effect (inactive)

* * *

Biological target: UniProtKB P36897
Sequence (P36897 whole entry, looked up): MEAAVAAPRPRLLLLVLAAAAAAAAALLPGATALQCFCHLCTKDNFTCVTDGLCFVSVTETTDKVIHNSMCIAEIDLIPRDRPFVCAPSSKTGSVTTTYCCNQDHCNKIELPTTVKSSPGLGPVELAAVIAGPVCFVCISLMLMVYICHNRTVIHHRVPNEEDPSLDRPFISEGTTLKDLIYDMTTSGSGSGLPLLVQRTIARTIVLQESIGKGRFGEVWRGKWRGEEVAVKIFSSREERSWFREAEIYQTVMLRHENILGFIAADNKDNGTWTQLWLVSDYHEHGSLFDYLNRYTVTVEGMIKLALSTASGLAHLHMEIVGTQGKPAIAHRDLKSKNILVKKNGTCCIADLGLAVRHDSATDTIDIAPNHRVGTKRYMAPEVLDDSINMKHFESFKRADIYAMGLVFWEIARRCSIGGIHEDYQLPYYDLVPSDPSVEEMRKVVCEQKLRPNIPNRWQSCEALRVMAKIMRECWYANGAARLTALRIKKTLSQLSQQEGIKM
Test: KINOMEscan competition binding
Details: compound 10.0 µM
readout: kinase still bound, per cent of control

* Cc1cc(Nc2cc(N3CCN(C)CC3)nc(Sc3ccc(NC(=O)C4CC4)cc3)n2)[nH]n1 | no effect (inactive)
* CCS(=O)(=O)Nc1ccc2c(c1)[C@H](/C(=N/c1ccc(CN3CCCCC3)cc1)c1ccccc1)C(=O)N2 | 0%
* Cc1ccc(C(=O)Nc2cccc(C(C)(C)C)c2)cc1-c1ccc(C(=O)NCC2CC2)cc1 | no effect (inactive)
* CN(C)c1ccc(-c2cc3ncccc3c(NCCCCN)n2)cc1 | no effect (inactive)
* N#Cc1ccc(-c2cnc3[nH]cc(NC(=O)c4cccnc4)c3c2)cc1 | no effect (inactive)
* O=C(Nc1n[nH]c2nc(-c3cccc(O)c3)ccc12)C1CC1 | no effect (inactive)
* O=C1Nc2ccccc2/C1=C/c1ccc[nH]1 | no effect (inactive)
* NC(=O)c1ccc(Nc2cc(-c3ccc(F)cc3)[nH]n2)cc1 | no effect (inactive)

Then this compound:
QUERY: Find the recorded kinase still bound, per cent of control belonging to "Cc1ccc(NC(=O)c2cccc(N3CCCCC3)c2)cc1-c1ccc(C(=O)NCC2CC2)cc1" and report it.
RESULT: no effect (inactive)

* * *

Biological target: SRC (human) (UniProt P12931)
Sequence (P12931 whole entry, looked up): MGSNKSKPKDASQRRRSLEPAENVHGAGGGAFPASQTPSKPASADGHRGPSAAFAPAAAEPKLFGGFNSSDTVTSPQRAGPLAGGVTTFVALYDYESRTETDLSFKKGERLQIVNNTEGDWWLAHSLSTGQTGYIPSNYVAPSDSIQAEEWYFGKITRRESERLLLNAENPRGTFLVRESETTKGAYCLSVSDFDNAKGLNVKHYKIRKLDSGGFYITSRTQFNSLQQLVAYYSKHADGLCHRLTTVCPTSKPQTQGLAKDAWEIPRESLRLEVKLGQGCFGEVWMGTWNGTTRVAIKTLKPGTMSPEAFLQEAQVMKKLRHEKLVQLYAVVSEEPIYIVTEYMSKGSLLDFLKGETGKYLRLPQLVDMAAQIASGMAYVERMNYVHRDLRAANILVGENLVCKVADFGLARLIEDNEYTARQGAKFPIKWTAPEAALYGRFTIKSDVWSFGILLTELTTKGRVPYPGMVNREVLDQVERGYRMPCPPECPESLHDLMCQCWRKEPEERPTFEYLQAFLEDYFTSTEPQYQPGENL
Assay: KINOMEscan competition binding
Settings: compound 10.0 µM
readout: kinase still bound, per cent of control

- Cc1ccc(O)cc1Nc1ccnc(Nc2cccc(C(N)=O)c2)n1: 0%
- NC(=O)c1ccc(Nc2cc(-c3ccc(F)cc3)[nH]n2)cc1: no effect (inactive)
- NC(=O)c1ccc(-c2cc(C(N)=O)c(N)c(-c3ccc(S(N)(=O)=O)cc3)c2)cc1: no effect (inactive)
- O=C(Nc1n[nH]c2nc(-c3cccc(O)c3)ccc12)C1CC1: no effect (inactive)

QUERY: Find the recorded kinase still bound, per cent of control belonging to "O=C1Nc2ccccc2/C1=C/c1ccc[nH]1" and report it.
RESULT: no effect (inactive)

QUERY: Find the recorded kinase still bound, per cent of control belonging to "Cc1ccc(NC(=O)c2cccc(N3CCCCC3)c2)cc1-c1ccc(C(=O)NCC2CC2)cc1" and report it.
RESULT: no effect (inactive)

* * *

Target: UniProt:P09769
Sequence (P09769 whole entry, looked up): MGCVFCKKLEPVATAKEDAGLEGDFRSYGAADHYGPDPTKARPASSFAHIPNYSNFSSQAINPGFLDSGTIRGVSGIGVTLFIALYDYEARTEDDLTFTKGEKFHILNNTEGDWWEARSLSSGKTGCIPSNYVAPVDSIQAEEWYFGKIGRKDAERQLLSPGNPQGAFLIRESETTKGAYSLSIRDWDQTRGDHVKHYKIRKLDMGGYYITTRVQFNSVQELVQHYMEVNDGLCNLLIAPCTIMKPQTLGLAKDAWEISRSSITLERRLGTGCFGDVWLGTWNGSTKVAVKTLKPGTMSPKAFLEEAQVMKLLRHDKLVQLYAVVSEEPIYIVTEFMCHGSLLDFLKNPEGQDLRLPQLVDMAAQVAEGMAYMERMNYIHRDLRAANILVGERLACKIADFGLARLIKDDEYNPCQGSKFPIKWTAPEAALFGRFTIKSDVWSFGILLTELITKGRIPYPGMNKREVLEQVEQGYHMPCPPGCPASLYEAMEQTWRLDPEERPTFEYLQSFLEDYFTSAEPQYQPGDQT
Test: KINOMEscan competition binding
Settings: compound 10.0 µM
readout: kinase still bound, per cent of control

Sample records with kinase still bound, per cent of control:
- c1ccc(-c2n[nH]cc2-c2ccnc3ccccc23)nc1: no effect (inactive)
- O=C1Nc2ccccc2/C1=C/c1ccc[nH]1: no effect (inactive)
- NC(=O)c1ccc(-c2cc(C(N)=O)c(N)c(-c3ccc(S(N)(=O)=O)cc3)c2)cc1: no effect (inactive)
- Cc1ccc(NC(=O)c2cccc(N3CCCCC3)c2)cc1-c1ccc(C(=O)NCC2CC2)cc1: no effect (inactive)
- CC(=O)c1c(-c2ccncc2)[nH]c(-c2ccncc2)c1C: no effect (inactive)

QUERY: Find the recorded kinase still bound, per cent of control belonging to "CCS(=O)(=O)Nc1ccc2c(c1)[C@H](/C(=N/c1ccc(CN3CCCCC3)cc1)c1ccccc1)C(=O)N2" and report it.
RESULT: 0.1%

QUERY: Find the recorded kinase still bound, per cent of control belonging to "Cc1ccc(O)cc1Nc1ccnc(Nc2cccc(C(N)=O)c2)n1" and report it.
RESULT: 0%

QUERY: Find the recorded kinase still bound, per cent of control belonging to "N#Cc1ccc(-c2cnc3[nH]cc(NC(=O)c4cccnc4)c3c2)cc1" and report it.
RESULT: no effect (inactive)

QUERY: Find the recorded kinase still bound, per cent of control belonging to "Cc1ccc(C(=O)Nc2cccc(C(C)(C)C)c2)cc1-c1ccc(C(=O)NCC2CC2)cc1" and report it.
RESULT: no effect (inactive)

QUERY: Find the recorded kinase still bound, per cent of control belonging to "NC(=O)c1ccc(Nc2cc(-c3ccc(F)cc3)[nH]n2)cc1" and report it.
RESULT: no effect (inactive)

* * *

Target: LYN (human)
Experiment: KINOMEscan competition binding
Settings: compound 10.0 µM
readout: kinase still bound, per cent of control

• O=C1Nc2ccccc2/C1=C/c1ccc[nH]1 = no effect (inactive)
• CCS(=O)(=O)Nc1ccc2c(c1)[C@H](/C(=N/c1ccc(CN3CCCCC3)cc1)c1ccccc1)C(=O)N2 = 0.2%
• O=C(Nc1n[nH]c2nc(-c3cccc(O)c3)ccc12)C1CC1 = no effect (inactive)

* * *

Target: TNNI3K (human)
Test: KINOMEscan competition binding
Settings: compound 10.0 µM
readout: kinase still bound, per cent of control

- O=C1Nc2ccccc2/C1=C/c1ccc[nH]1: no effect (inactive)
- c1ccc(-c2n[nH]cc2-c2ccnc3ccccc23)nc1: no effect (inactive)
- Cc1cc(Nc2cc(N3CCN(C)CC3)nc(Sc3ccc(NC(=O)C4CC4)cc3)n2)[nH]n1: no effect (inactive)
- O=C(Nc1n[nH]c2nc(-c3cccc(O)c3)ccc12)C1CC1: no effect (inactive)
- CCS(=O)(=O)Nc1ccc2c(c1)[C@H](/C(=N/c1ccc(CN3CCCCC3)cc1)c1ccccc1)C(=O)N2: 7.6%
- N#Cc1ccc(-c2cnc3[nH]cc(NC(=O)c4cccnc4)c3c2)cc1: no effect (inactive)
- CC(=O)c1c(-c2ccncc2)[nH]c(-c2ccncc2)c1C: no effect (inactive)
- NC(=O)c1ccc(-c2cc(C(N)=O)c(N)c(-c3ccc(S(N)(=O)=O)cc3)c2)cc1: no effect (inactive)

QUERY: Enter reported kinase still bound, per cent of control observed with TNNI3K (human) for "NC(=O)c1ccc(Nc2cc(-c3ccc(F)cc3)[nH]n2)cc1"
RESULT: no effect (inactive)

QUERY: Enter reported kinase still bound, per cent of control observed with TNNI3K (human) for "Nc1ncnc2c1c(-c1cccc(O)c1)cn2C1CCNCC1"
RESULT: no effect (inactive)

QUERY: Enter reported kinase still bound, per cent of control observed with TNNI3K (human) for "CN(C)c1ccc(-c2cc3ncccc3c(NCCCCN)n2)cc1"
RESULT: no effect (inactive)

* * *

Target: UniProt P36888
Sequence (P36888 whole entry, looked up): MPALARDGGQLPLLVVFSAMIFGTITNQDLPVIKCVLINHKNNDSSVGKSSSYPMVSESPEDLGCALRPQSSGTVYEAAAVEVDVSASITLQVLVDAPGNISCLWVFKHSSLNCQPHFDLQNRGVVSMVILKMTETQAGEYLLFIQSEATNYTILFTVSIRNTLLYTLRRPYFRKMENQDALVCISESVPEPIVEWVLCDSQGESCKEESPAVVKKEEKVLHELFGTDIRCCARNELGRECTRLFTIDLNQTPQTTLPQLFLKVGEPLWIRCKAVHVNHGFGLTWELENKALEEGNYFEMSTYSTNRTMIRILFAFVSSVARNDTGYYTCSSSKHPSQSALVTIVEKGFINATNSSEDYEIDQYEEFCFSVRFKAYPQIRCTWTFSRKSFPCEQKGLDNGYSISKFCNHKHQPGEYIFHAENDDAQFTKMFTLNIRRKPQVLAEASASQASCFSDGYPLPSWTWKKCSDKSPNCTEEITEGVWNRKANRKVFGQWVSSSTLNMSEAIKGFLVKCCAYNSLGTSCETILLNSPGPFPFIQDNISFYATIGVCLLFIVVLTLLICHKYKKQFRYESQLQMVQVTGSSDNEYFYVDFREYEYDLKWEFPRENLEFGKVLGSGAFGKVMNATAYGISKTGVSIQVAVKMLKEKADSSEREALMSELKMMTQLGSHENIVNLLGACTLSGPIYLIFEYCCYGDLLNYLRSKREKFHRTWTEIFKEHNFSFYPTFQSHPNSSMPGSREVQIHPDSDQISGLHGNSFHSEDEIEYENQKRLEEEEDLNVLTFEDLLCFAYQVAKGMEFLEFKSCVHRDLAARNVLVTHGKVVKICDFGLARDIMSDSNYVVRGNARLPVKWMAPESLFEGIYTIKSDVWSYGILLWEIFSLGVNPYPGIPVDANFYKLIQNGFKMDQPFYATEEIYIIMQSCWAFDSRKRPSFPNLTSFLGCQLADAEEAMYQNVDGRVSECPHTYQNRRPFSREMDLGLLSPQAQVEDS
Assay: KINOMEscan competition binding
Settings: compound 10.0 µM
readout: kinase still bound, per cent of control

Sample records with kinase still bound, per cent of control:
* CC(=O)c1c(-c2ccncc2)[nH]c(-c2ccncc2)c1C | no effect (inactive)
* O=C(Nc1n[nH]c2nc(-c3cccc(O)c3)ccc12)C1CC1 | no effect (inactive)
* CCS(=O)(=O)Nc1ccc2c(c1)[C@H](/C(=N/c1ccc(CN3CCCCC3)cc1)c1ccccc1)C(=O)N2 | 0%
* Cc1ccc(NC(=O)c2cccc(N3CCCCC3)c2)cc1-c1ccc(C(=O)NCC2CC2)cc1 | no effect (inactive)
* c1ccc(-c2n[nH]cc2-c2ccnc3ccccc23)nc1 | no effect (inactive)

Then this molecule:
QUERY: Find the recorded kinase still bound, per cent of control belonging to "Cc1ccc(C(=O)Nc2cccc(C(C)(C)C)c2)cc1-c1ccc(C(=O)NCC2CC2)cc1" and report it.
RESULT: no effect (inactive)
